From: patent US20240182563A1

# EXPERIMENTAL_TARGET: T1, human CNTN4 antigen expressed on the cell membrane of 293FT cells (human) (UniProt Q8IWV2)
# T1 sequence (looked up): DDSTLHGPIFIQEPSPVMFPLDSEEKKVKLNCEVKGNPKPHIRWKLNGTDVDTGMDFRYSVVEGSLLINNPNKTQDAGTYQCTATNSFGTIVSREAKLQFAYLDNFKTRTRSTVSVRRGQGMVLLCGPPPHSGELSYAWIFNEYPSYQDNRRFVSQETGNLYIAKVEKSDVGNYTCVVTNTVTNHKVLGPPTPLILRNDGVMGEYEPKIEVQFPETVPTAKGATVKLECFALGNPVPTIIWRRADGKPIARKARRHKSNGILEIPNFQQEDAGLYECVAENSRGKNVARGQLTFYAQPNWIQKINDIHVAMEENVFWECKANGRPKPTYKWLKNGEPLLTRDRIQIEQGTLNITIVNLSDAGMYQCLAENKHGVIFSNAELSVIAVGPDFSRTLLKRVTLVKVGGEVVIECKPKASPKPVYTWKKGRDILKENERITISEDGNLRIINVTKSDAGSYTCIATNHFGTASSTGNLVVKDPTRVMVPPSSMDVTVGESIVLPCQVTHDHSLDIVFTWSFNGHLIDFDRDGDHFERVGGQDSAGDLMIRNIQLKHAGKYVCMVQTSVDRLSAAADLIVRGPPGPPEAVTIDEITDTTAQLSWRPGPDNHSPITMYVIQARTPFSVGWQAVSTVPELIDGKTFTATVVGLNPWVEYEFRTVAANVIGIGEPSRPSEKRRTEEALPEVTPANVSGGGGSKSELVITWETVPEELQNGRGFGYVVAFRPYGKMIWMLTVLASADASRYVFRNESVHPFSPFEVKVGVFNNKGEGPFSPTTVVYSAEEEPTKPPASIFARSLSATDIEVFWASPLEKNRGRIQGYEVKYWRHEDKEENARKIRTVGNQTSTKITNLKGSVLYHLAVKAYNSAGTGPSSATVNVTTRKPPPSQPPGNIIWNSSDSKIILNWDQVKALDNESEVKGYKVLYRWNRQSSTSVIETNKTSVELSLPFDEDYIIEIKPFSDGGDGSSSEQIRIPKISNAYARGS
# METHOD_NOTES: FACS, 293FT cells transfected with human CNTN4, 40 ug/mL, anti-hCk-PE
MEASURED_PROPERTY: Shift % (%)

BINDER: anti-CNTN4 scFv-hCk S138 (scFv, part only; not given: linker and kappa constant region, V domains shown, not shown: another chain or arm of the molecule; a dimerising Fc or GST; small tags and cut ends) VL: ALTQPSSVSANPGETVNITCSGGGSYAGSYYYGWYQQKAPGSAPVTVIYDSTNRPSNIPSRFSGSLSGSTNTLTITGVRAEDEAVYYCGGYDGSTDVFGAGTTLTVL VH: AVTLDESEGGLQTPGGALSLVCKASGFTFSSFNMFWVRQAPGKGLEYVAEISGGGGSTWYAPAVKGRATISRDNGQSTVRLQLNNLRAEDTGTYYCAKSADTWSYGAATIDAWGHGTEVIVSS
TEST_RESULT: 15.8
//
BINDER: anti-CNTN4 scFv-hCk S46 (scFv, part only; not given: linker and kappa constant region, not shown: a dimerising Fc or GST) scFv, part: ALTQPSSVSANPGETVEITCSGGSGSYGWYQQKAPGSAPVTVIYDNTNRPSNIPSRFSGSGSDSTGTLTITGVQADDKAVYYCGSYDSIEVIFGAGTTLTVLAVTLDESGGGLHTPGGALSLVCKASGFTFSSYGMAWVRQAPGKGLEWVAGITSSGSSAGYGPAVKGRATISRDNGQSTVRLQLNNLRAEDTATYYCAKDGYIYSGADSDSIDAWGHGTEVIVSS
TEST_RESULT: 8.19
//
BINDER: anti-CNTN4 scFv-hCk S6 (scFv, part only; not given: linker and kappa constant region, not shown: a dimerising Fc or GST) scFv, part: ALTQPSSVSANPGETVKITCSGGSGNYGWYQQKSPGSAPVTVIYNGNNRPSDIPSRFSGSGSGSTNTLAITGVQAEDEAVYFCGGYDGTIDAFGAGTTLTVLAVTLDESEGGLQTPGGALSLVCKASGFTFSSFNMFWVRQAPGKGLEYVAEISGGGGSTWYAPAVKGRATISRDNGQSTVRLQLNNLRAEDTGTYYCAKSADTWSYGAATIDAWGHGTEVIVSS
TEST_RESULT: 14.7
